test system: respiratory syncytial virus A (Long); experiment: Antiviral CPE reduction assay, RSV A in HEL 299; format: cell-based; details: human respiratory syncytial virus; HEL 299 cells, 100 CCID50, MTS
Reported Property: EC50

A selection of reference data follows.
CCN(CC)c1ccc(/C=N/c2nc3ccc(C#N)cc3n2CC(C)C)c(O)c1    > 100 µM
CCCCCCn1c(/N=C/c2ccc(N(C)C)cc2)nc2ccccc21    > 100 µM
NC(=O)c1ncn([C@@H]2O[C@H](CO)[C@@H](O)[C@H]2O)n1 [Ribavirin, ribavirin, reference compound]    10.8 µM

What value of EC50 has been reported for the following compound? `CCN(CC)c1ccc(/C=N/c2nc3ccc(C#N)cc3n2-c2ccccc2)c(O)c1`
> 100 µM

What value of EC50 has been reported for the following compound? `CN(C)c1ccc(/C=N/c2nc3ccc(C#N)cc3n2C)cc1`
> 100 µM

What value of EC50 has been reported for the following compound? `CC(C)Cn1c(N)nc2ccccc21`
> 100 µM

What value of EC50 has been reported for the following compound? CCC(CC)COC(=O)[C@H](C)N[P@](=O)(OC[C@H]1O[C@@](C#N)(c2ccc3c(N)ncnn23)[C@H](O)[C@@H]1O)Oc1ccccc1 [Remdesivir, remdesivir, reference compound]
0.03 µM

* * *

Listed here are compounds together with their documented EC50.
tested on: Zika virus (Mr776); test: Antiviral CPE reduction assay, Zika virus in Huh-7; assay type: cell-based; conditions: Huh-7 cells, 100 CCID50, MTS

A selection of reference data follows.
CCN(CC)c1ccc(/C=N/c2nc3ccc(C#N)cc3n2C)c(O)c1    > 100 µM
CCN(CC)c1ccc(/C=N/c2nc3ccc(C#N)cc3n2-c2ccccc2)c(O)c1    > 100 µM
CC(C)Cn1c(/N=C/c2ccc([N+](=O)[O-])cc2)nc2ccc(C#N)cc21    > 100 µM
CCCCCCn1c(/N=C/c2ccc(N(C)C)cc2)nc2ccccc21    > 100 µM
CC(C)Cn1c(N)nc2ccccc21    > 100 µM
Cn1c(N)nc2ccc(C#N)cc21    46.4 µM
CC(C)Cn1c(/N=C/c2ccc(N(C)C)cc2)nc2ccc(C#N)cc21    > 100 µM
CCN(CC)c1ccc(/C=N/c2nc3ccc(C#N)cc3n2CC(C)C)c(O)c1    > 100 µM
CN(C)c1ccc(/C=N/c2nc3ccc(C#N)cc3n2C)cc1    > 100 µM

From here, focus on the item given below.
What value of EC50 has been reported for the following compound? `Cn1c(N)nc2ccccc21`
43.1 µM

* * *

Listed here are molecules together with their documented EC50.
system: human coronavirus HCoV-NL63; assay: Antiviral CPE reduction assay, HCoV-NL63 in Huh-7; format: cell-based; conditions: Huh-7 cells, 100 CCID50, MTS

A selection of reference data follows.
CN(C)c1ccc(/C=N/c2nc3ccc(C#N)cc3n2C)cc1    82.8 µM
NC(=O)c1ncn([C@@H]2O[C@H](CO)[C@@H](O)[C@H]2O)n1 [Ribavirin, ribavirin, reference compound]    > 250 µM

What value of EC50 has been reported for the following molecule? `CC(C)Cn1c(/N=C/c2ccc([N+](=O)[O-])cc2)nc2ccc(C#N)cc21`
> 100 µM

What value of EC50 has been reported for the following molecule? `CC(C)Cn1c(N)nc2ccccc21`
> 100 µM
